tgt: CREB-binding protein [1085-1192] (UniProt Q92793)
Construct: 1085-1192
Sequence (Q92793 1085-1192): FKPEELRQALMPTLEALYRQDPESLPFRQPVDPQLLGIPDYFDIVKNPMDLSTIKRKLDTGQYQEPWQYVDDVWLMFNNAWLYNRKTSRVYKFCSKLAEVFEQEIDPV
assay-procedure: Inhibitory Activity of Compounds on the Bromodomain (BRD) of CBP/EP300
quantity: pIC50
pIC50 here is simply -log10 of the concentration when that concentration is written in mol/L.

compound	quantity	reported-measurement
COc1cccc(-c2nc3cc(C4C(C)=NOC4C)ccc3n2[C@H]2CC[C@H](OC)CC2)c1C1=CC(F)C(F)C=C1 (stereo partly drawn)	pIC50	7.66
CO[C@H]1C[C@@H](n2c([C@@H]3CCOC(=O)N3C3=CC(F)C(F)C=C3)nc3cc(C4C(C)=NOC4C)ccc32)C1 (stereo partly drawn)	pIC50	8.33

For the next question, use this compound.
Lab note: CO[C@H]1CC[C@H](n2c([C@@H]3CCOCC(=O)N3C3=CC(F)C(F)C=C3)nc3cc(C4C(C)=NOC4C)ccc32)CC1 (stereo partly drawn) gave pIC50 of 8.32

====

tgt: Histone acetyltransferase p300 [1049-1156] (UniProt Q09472)
Construct: 1049-1156
Sequence (Q09472 1049-1156): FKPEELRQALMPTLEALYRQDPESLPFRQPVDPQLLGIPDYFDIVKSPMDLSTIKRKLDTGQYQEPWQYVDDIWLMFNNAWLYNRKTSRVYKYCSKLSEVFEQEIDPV
assay-procedure: Inhibitory Activity of Compounds on the Bromodomain (BRD) of CBP/EP300
quantity: IC50 (nM)
Provide only the numeric value, understood in nM.

molecule	tgt	IC50 (nM)
COc1cccc(-c2nc3cc(C4C(C)=NOC4C)ccc3n2[C@H]2CC[C@H](OC)CC2)c1C1=CC(F)C(F)C=C1 (stereo partly drawn)	Histone acetyltransferase p300 [1049-1156] (UniProt Q09472)	9.6
CO[C@H]1C[C@@H](n2c([C@@H]3CCOC(=O)N3C3=CC(F)C(F)C=C3)nc3cc(C4C(C)=NOC4C)ccc32)C1 (stereo partly drawn)	Histone acetyltransferase p300 [1049-1156] (UniProt Q09472)	2.7

For the next question, use this molecule.
Log: Histone acetyltransferase p300 [1049-1156] (UniProt Q09472), molecule CO[C@H]1CC[C@H](n2c([C@@H]3CCOCC(=O)N3C3=CC(F)C(F)C=C3)nc3cc(C4C(C)=NOC4C)ccc32)CC1 (stereo partly drawn) , IC50 = 2.2
